This collection of values is drawn from paper PMC6270892.

Target: LAR (Homo sapiens)
Sequence (P10586 30-1907, species assumed): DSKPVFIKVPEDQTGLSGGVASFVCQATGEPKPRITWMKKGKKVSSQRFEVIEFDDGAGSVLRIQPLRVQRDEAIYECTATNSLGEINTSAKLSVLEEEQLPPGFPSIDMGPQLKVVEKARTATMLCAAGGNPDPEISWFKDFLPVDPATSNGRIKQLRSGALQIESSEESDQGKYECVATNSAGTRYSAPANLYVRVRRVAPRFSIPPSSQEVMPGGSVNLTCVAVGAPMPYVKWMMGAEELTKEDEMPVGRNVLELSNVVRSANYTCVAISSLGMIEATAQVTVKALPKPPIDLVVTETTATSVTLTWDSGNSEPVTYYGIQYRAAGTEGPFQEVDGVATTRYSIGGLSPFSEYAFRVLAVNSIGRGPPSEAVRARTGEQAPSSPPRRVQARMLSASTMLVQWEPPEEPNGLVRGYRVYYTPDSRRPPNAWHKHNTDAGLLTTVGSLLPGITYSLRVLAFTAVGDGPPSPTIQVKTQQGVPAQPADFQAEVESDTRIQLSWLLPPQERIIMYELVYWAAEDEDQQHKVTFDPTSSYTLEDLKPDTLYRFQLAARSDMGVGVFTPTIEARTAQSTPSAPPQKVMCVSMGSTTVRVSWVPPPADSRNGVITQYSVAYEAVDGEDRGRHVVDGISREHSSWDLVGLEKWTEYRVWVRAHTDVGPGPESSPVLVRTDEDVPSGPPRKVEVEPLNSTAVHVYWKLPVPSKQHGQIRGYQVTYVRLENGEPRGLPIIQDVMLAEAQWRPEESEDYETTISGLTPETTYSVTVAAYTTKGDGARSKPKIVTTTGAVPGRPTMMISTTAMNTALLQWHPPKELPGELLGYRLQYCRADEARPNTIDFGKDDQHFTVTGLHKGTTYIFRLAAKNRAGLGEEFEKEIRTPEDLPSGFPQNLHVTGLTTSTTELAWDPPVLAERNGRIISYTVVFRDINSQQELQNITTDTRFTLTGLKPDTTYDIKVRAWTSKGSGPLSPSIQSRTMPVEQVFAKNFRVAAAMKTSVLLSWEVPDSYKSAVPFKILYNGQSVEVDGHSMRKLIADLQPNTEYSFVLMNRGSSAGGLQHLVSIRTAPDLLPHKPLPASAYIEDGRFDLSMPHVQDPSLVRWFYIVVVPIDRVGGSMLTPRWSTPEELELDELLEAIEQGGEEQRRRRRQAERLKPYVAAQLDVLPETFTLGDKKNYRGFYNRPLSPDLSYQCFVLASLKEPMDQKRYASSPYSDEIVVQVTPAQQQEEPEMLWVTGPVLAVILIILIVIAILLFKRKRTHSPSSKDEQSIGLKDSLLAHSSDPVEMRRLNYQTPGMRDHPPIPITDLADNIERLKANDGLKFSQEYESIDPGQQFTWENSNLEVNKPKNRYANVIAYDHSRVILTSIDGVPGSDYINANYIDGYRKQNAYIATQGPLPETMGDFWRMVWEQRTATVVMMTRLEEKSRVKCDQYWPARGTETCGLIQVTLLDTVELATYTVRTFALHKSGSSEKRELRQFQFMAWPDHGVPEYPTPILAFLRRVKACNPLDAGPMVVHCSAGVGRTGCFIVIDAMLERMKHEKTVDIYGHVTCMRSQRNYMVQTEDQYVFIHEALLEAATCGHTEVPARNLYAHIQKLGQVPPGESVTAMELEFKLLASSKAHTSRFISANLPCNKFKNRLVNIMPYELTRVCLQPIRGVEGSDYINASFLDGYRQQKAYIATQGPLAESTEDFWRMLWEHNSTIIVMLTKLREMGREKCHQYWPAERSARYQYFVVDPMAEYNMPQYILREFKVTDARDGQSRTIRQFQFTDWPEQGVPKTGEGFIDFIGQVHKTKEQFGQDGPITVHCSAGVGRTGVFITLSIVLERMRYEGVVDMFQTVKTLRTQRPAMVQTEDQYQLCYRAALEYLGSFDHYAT
Assay: LAR phosphatase inhibition assay
Type: biochemical
Conditions: tested at 50 μg/mL; read-out: LAR inhibition
Attribute Measured: IC50

CCCCCCC/C=C/[C@@H]1O[C@H]2C(=O)C=C3C[C@@H](O)C[C@H]3[C@@H]2C=C1C [Compound 4, penostatin B]
> 145 µM
CCCCCCC/C=C/[C@@H]1O[C@@]2(O)C(=O)C=C3C=CC[C@H]3[C@@H]2C=C1C [Compound 1, penostatin J]
> 146 µM
CCCCCCC/C=C/[C@@H]1O[C@H]2C(=O)C=C3C[C@H](O)C[C@H]3[C@@H]2C=C1C [Compound 3, penostatin A]
> 145 µM
